- System: Rattus norvegicus
- PROTOCOL TEXT: Anticonvulsant activity in Sprague-Dawley albino rat assessed as protection against maximal electroshock-induced seizures at 30 mg/kg, po after 1 hr
- Assay type: functional, organism-based
- Set-up: dose 30 mg/kg
Activity calls are given as the source filed them. No cut-off for these calls is given here.
Result category, one only: active, inactive

Per the records of this test, what outcome belongs to CCC(C)C(CC)COC(N)=O (racemic) ?
inactive

Outcome? CCC(COC(N)=O)C(C)C (racemic)
inactive

Called result for CCCCC(CC)COC(N)=O (racemic)
inactive

Which result was noted for this compound in the test: CC(COC(N)=O)CC(C)(C)C (racemic)
inactive

Which outcome was assigned to NC(=O)OCCc1ccccc1 [PHENYLETHYL CARBAMATE] in this test?
active

Could you check what this test reported for CCC(C)CCOC(N)=O (racemic) ?
inactive

---

- Tested on: Mus musculus
- PROTOCOL TEXT: Anticonvulsant activity in albino CF1 mouse assessed as protection against maximal electroshock-induced seizures at 300 mg/kg, ip after 0.5 hrs
- Type: functional, organism-based
- Design: dose 300 mg/kg
Activity calls are given as the source filed them. No cut-off for these calls is given here.
METRIC: Activity

Before answering, review these 4 worked examples.
COMPOUND	METRIC	RESULT
CCC(CC)COC(N)=O	Activity	Active
CC(COC(N)=O)CC(C)(C)C (racemic)	Activity	Active
CCC(COC(N)=O)CC(C)C (racemic)	Activity	Active
CCCC(CCC)COC(=O)NC	Activity	Active

For the next question, use this compound.
State the recorded Activity for this entry: NC(=O)OCCc1ccccc1 [PHENYLETHYL CARBAMATE]
Active
